# Test system: E. coli ATCC 25922
# particulars: ATCC 25922
# Experimental: Bacteria were either obtained from American Type Culture Collection (ATCC; Manassas, Va., USA) or independent academic clinical isolate collections, as listed in Table 18 below. Bacteria were cultured in Nutrient broth (NB; Bacto Laboratories, catalogue No. 234000) or Mueller Hinton broth (MHB; Bacto Laboratories, catalogue No. 211443) at 37° C. overnight with shaking (˜180 RPM). […]
Starred links: 1 amine or outer side, 2 acyl side, 3 side chain; linkers in the order of their positions; H or OH if unused. Positions of bridges follow the written chain, without caps; N, C: chain ends. Non-standard residues stand in square brackets, D forms with d. Residues, ends and D or L forms follow the SMILES beside them. *: point of attachment. Benzoyl(4-Ph) = O=C(c1ccc(-c2ccccc2)cc1)*; Decanoyl(3R-OH) = CCCCCCC[C@@H](O)CC(=O)*; 4Pal = N[C@@H](Cc1ccncc1)C(=O)O; azaDab = NCCN(N[*:1])C(=O)[*:2]; dDab = NCC[C@@H](N)C(=O)O; Dab = NCC[C@H](N)C(=O)O
measured_quantity: MIC E. coli ATCC 25922 (µg/mL)
# value in µg/mL; strip the unit string

CCCCCCC[C@@H](O)CC(=O)N[C@H](CCN)C(=O)N[C@H]1CCNC(=O)[C@H](CC(C)C)NC(=O)[C@H](CCN)NC(=O)[C@H](CCN)NC(=O)[C@H](CC(C)C)NC(=O)[C@@H](Cc2ccccc2)NC(=O)N(CCN)NC1=O [compound 8636] ({Decanoyl(3R-OH)}-[dDab][Dab][azaDab][dF]L[Dab][Dab]L; lactam 2-C); 16
CCCCCCC[C@@H](O)CC(=O)N[C@H](CCN)C(=O)N[C@H]1CCNC(=O)[C@H](Cc2ccncc2)NC(=O)[C@H](CCN)NC(=O)[C@H](CCN)NC(=O)[C@H](CC(C)C)NC(=O)[C@@H](Cc2ccccc2)NC(=O)[C@H](CCN)NC1=O [compound 8906] ({Decanoyl(3R-OH)}-[dDab][Dab][Dab][dF]L[Dab][Dab][4Pal]; lactam 2-C); 4

Pending compound:
-- ask What value of MIC E. coli ATCC 25922 has been reported for the following compound? CC(C)C[C@@H]1NC(=O)[C@H](CCN)NC(=O)[C@H](CCN)NC(=O)[C@H](Cc2ccccc2)NC(=O)[C@@H](CC(C)C)NC(=O)[C@H](CCN)NC(=O)[C@@H](NC(=O)[C@@H](CCN)NC(=O)c2ccc(-c3ccccc3)cc2)CCNC1=O [compound 6518] ({Benzoyl(4-Ph)}-[dDab][Dab][Dab][dL]F[Dab][Dab]L; lactam 2-C)
-- reply 2

###

# Tested on: K. pneumoniae GN_106, PmxR
# particulars: GN 106, PmxR
Positions of bridges follow the written chain, without caps; N, C: chain ends. Non-standard residues stand in square brackets, D forms with d. Residues, ends and D or L forms follow the SMILES beside them. *: point of attachment. Decanoyl(3R-OH) = CCCCCCC[C@@H](O)CC(=O)*; hPhe = N[C@@H](CCc1ccccc1)C(=O)O; d3Pal = N[C@H](Cc1cccnc1)C(=O)O; dDab = NCC[C@@H](N)C(=O)O; Orn = NCCC[C@H](N)C(=O)O; Dab = NCC[C@H](N)C(=O)O
measured_quantity: MIC K. pneumoniae GN_106, PmxR (µg/mL)
// note: answer is a bare numeric in µg/mL

CCCCCCC[C@@H](O)CC(=O)N[C@H](CCN)C(=O)N[C@H]1CCNC(=O)[C@H](CC(C)C)NC(=O)[C@H](CCCN)NC(=O)[C@H](CCN)NC(=O)[C@H](CC(C)C)NC(=O)[C@@H](Cc2ccccc2)NC(=O)[C@H](CCN)NC1=O [compound 988] ({Decanoyl(3R-OH)}-[dDab][Dab][Dab][dF]L[Dab][Orn]L; lactam 2-C); 2
CCCCCCC[C@@H](O)CC(=O)N[C@H](Cc1cccnc1)C(=O)N[C@H]1CCNC(=O)[C@H](CC(C)C)NC(=O)[C@H](CCN)NC(=O)[C@H](CCN)NC(=O)[C@H](CC(C)C)NC(=O)[C@@H](Cc2ccccc2)NC(=O)[C@H](CCN)NC1=O [compound 6445] ({Decanoyl(3R-OH)}-[d3Pal][Dab][Dab][dF]L[Dab][Dab]L; lactam 2-C); 4

-- ask # get_value(readout= MIC K. pneumoniae GN_106, PmxR, system= K. pneumoniae GN_106, PmxR) for CCCCCCC[C@@H](O)CC(=O)N[C@H](CCN)C(=O)N[C@H]1CCNC(=O)[C@H](CC(C)C)NC(=O)[C@H](CCCCN)NC(=O)[C@H](CCN)NC(=O)[C@H](CC(C)C)NC(=O)[C@@H](Cc2ccccc2)NC(=O)[C@H](CCN)NC1=O [compound 989] ({Decanoyl(3R-OH)}-[dDab][Dab][Dab][dF]L[Dab]KL; lactam 2-C)
-- reply 4

-- ask What do you have for CCCCCCC[C@@H](O)CC(=O)N[C@H](CCN)C(=O)N[C@H]1CCNC(=O)[C@H](CCc2ccccc2)NC(=O)[C@H](CCN)NC(=O)[C@H](CCN)NC(=O)[C@H](CC(C)C)NC(=O)[C@@H](Cc2ccccc2)NC(=O)[C@H](CCN)NC1=O [compound 8913] ({Decanoyl(3R-OH)}-[dDab][Dab][Dab][dF]L[Dab][Dab][hPhe]; lactam 2-C) ?
-- reply 2

###

# Tested on: E. coli ATCC 25922
# particulars: ATCC 25922
Positions of bridges follow the written chain, without caps; N, C: chain ends. Non-standard residues stand in square brackets, D forms with d. Residues, ends and D or L forms follow the SMILES beside them. *: point of attachment. dPhe(4-NO2) = N[C@H](Cc1ccc([N+](=O)[O-])cc1)C(=O)O; Decanoyl(3R-OH) = CCCCCCC[C@@H](O)CC(=O)*; Butanoyl(4-OPh) = O=C(CCCOc1ccccc1)*; dDab = NCC[C@@H](N)C(=O)O; Dab = NCC[C@H](N)C(=O)O
measured_quantity: MIC E. coli ATCC 25922

CC(C)C[C@@H]1NC(=O)[C@H](CCN)NC(=O)[C@H](CCN)NC(=O)[C@H](CC(C)C)NC(=O)[C@@H](Cc2ccccc2)NC(=O)[C@H](CCN)NC(=O)[C@@H](NC(=O)[C@@H](CCN)NC(=O)CCCOc2ccccc2)CCNC1=O [compound 6529] ({Butanoyl(4-OPh)}-[dDab][Dab][Dab][dF]L[Dab][Dab]L; lactam 2-C); 8 µg/mL

-- ask Param item = CCCCCCC[C@@H](O)CC(=O)N[C@H](CCN)C(=O)N[C@H]1CCNC(=O)[C@H](C)NC(=O)[C@H](CCN)NC(=O)[C@H](CCN)NC(=O)[C@H](CC(C)C)NC(=O)[C@@H](Cc2ccccc2)NC(=O)[C@H](CCN)NC1=O [compound 4943] ({Decanoyl(3R-OH)}-[dDab][Dab][Dab][dF]L[Dab][Dab]A; lactam 2-C) ; retrieve measured MIC E. coli ATCC 25922.
-- reply 8 µg/mL

-- ask Now try CCCCCCC[C@@H](O)CC(=O)N[C@H](Cc1ccc([N+](=O)[O-])cc1)C(=O)N[C@H]1CCNC(=O)[C@H](CC(C)C)NC(=O)[C@H](CCN)NC(=O)[C@H](CCN)NC(=O)[C@H](Cc2ccccc2)NC(=O)[C@@H](CC(C)C)NC(=O)[C@H](CCN)NC1=O [compound 6433] ({Decanoyl(3R-OH)}-[dPhe(4-NO2)][Dab][Dab][dL]F[Dab][Dab]L; lactam 2-C) .
-- reply 8 µg/mL

###

Readings of MIC E. coli ATCC 25922 for the listed compounds
# Test system: E. coli ATCC 25922
# particulars: ATCC 25922
Positions of bridges follow the written chain, without caps; N, C: chain ends. Non-standard residues stand in square brackets, D forms with d. Residues, ends and D or L forms follow the SMILES beside them. *: point of attachment. Decanoyl(3R-OH) = CCCCCCC[C@@H](O)CC(=O)*; d3Pal = N[C@H](Cc1cccnc1)C(=O)O; dDab = NCC[C@@H](N)C(=O)O; Dab = NCC[C@H](N)C(=O)O; X5 = O=C(CCCCCCCO)*

Known MIC E. coli ATCC 25922 results, listed for orientation:
CCCCCCC[C@@H](O)CC(=O)N[C@H](CCN)C(=O)N[C@H]1CCNC(=O)[C@H](CC(=O)O)NC(=O)[C@H](CCN)NC(=O)[C@H](CCN)NC(=O)[C@H](CC(C)C)NC(=O)[C@@H](Cc2ccccc2)NC(=O)[C@H](CCN)NC1=O [compound 6513] ({Decanoyl(3R-OH)}-[dDab][Dab][Dab][dF]L[Dab][Dab]D; lactam 2-C); >64 µg/mL
CCCCCCC[C@@H](O)CC(=O)N[C@H](CCN)C(=O)N[C@H]1CCNC(=O)[C@H](CC(C)C)NC(=O)[C@H](CCN)NC(=O)[C@H](CCN)NC(=O)[C@H](CC(C)C)NC(=O)[C@H](C)NC(=O)[C@H](CCN)NC1=O [compound 4947] ({Decanoyl(3R-OH)}-[dDab][Dab][Dab]AL[Dab][Dab]L; lactam 2-C); >32 µg/mL
CCCCCCC[C@@H](O)CC(=O)N[C@H](Cc1cccnc1)C(=O)N[C@H]1CCNC(=O)[C@H]([C@@H](C)O)NC(=O)[C@H](CCN)NC(=O)[C@H](CCN)NC(=O)[C@H](CC(C)C)NC(=O)[C@@H](Cc2ccccc2)NC(=O)[C@H](CCN)NC1=O [compound 6398] ({Decanoyl(3R-OH)}-[d3Pal][Dab][Dab][dF]L[Dab][Dab]T; lactam 2-C); >64 µg/mL

-- ask Short answer please: MIC E. coli ATCC 25922, E. coli ATCC 25922, entry CC(C)C[C@@H]1NC(=O)[C@H](CCN)NC(=O)[C@H](CCN)NC(=O)[C@H](CC(C)C)NC(=O)[C@@H](Cc2ccccc2)NC(=O)[C@H](CCN)NC(=O)[C@@H](NC(=O)[C@@H](CCN)NC(=O)CCCCCCCO)CCNC1=O [compound 6522] (X5-[dDab][Dab][Dab][dF]L[Dab][Dab]L; lactam 2-C)
-- reply >32 µg/mL

Source: patent US11279733B2
